The measurements presented in this section are drawn from the supplement of paper PMC11908140.

B1: library; numbered along this chain (parent)
chain: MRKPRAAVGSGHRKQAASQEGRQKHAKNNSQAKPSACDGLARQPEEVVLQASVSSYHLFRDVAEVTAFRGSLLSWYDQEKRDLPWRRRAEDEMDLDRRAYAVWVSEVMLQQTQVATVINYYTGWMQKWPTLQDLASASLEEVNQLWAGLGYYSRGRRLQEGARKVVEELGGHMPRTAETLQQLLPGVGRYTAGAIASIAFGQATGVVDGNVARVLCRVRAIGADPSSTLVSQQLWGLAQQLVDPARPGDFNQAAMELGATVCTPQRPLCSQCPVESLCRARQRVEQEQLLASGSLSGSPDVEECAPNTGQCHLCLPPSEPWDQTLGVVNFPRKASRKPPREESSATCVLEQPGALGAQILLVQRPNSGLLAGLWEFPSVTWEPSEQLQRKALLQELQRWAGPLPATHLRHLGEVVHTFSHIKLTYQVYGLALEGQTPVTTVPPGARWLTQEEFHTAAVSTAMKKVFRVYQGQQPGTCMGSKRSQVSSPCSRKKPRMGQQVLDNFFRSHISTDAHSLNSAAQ

# Variants of: B1
# assay.name: 8OG:A repair function score (normalized; synonymous = 0, nonsense = -1) (normalized log-likelihood score); higher = more repair activity (WT-like);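 further: cells sorted at 72 h after reporter transfection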
# stated.conditions: with 8OG:A DNA repair reporter (GFP) in HEK-293 MUTYH KO cells
parameter: 8OG:A repair function score
Number only, no unit.

Examples with answers:
{"columns": ["mutation.name", "parameter", "recorded.result"],
 "data": [
  ["P404A", "8OG:A repair function score", -0.142],
  ["R60Q", "8OG:A repair function score", -0.692],
  ["E287K", "8OG:A repair function score", -0.0128],
  ["S510L", "8OG:A repair function score", 0.0205]
]}

Ask: Identify measured 8OG:A repair function score associated with L355R
Result: -0.00513

Ask: Identify measured 8OG:A repair function score associated with P338K
Result: 0.0337

Ask: Identify measured 8OG:A repair function score associated with R332N
Result: -0.315

Ask: Identify measured 8OG:A repair function score associated with M93K
Result: 0.00623

Ask: Identify measured 8OG:A repair function score associated with E160M
Result: 0.0471

Ask: Identify measured 8OG:A repair function score associated with S419F
Result: -0.753

Ask: Identify measured 8OG:A repair function score associated with Q159T
Result: -0.0681

Ask: Identify measured 8OG:A repair function score associated with Q78T
Result: -0.00936

Ask: Identify measured 8OG:A repair function score associated with Q159K
Result: 0.0628

Ask: Identify measured 8OG:A repair function score associated with Q240Y
Result: -0.969

Ask: Identify measured 8OG:A repair function score associated with S367M
Result: 0.226

Ask: Identify measured 8OG:A repair function score associated with L158I
Result: -0.11

Ask: Identify measured 8OG:A repair function score associated with V468T
Result: -0.0398

Ask: Identify measured 8OG:A repair function score associated with K493N
Result: 0.0279

Ask: Identify measured 8OG:A repair function score associated with V230S
Result: -0.422

Ask: Identify measured 8OG:A repair function score associated with F68C
Result: -0.545

Ask: Identify measured 8OG:A repair function score associated with S138L
Result: -0.279
